Just for reference, ChEMBL document CHEMBL3045985 is where these values come from.

- Tested on: INS1
- protocol-text: Hypoglycemic activity in Rattus norvegicus (rat) INS1 cells assessed as glucose-mediated insulin release after 90 min (reference value: 62.96 +/- 5.68 to 69.70 +/- 4.98 %)
- Type: functional
quantity-name: Activity

# molecule, result
data = [
    ("O=C1NC(=S)N/C1=C/c1cccc(-c2cc(=O)c3ccccc3o2)c1", "247.1%"),
    ("CN1C(=O)S/C(=C/c2cccc(-c3cc(=O)c4ccccc4o3)c2)C1=O", "134.9%"),
    ("CCN1C(=O)N/C(=C/c2cccc(-c3cc(=O)c4ccccc4o3)c2)C1=O", "167.8%"),
    ("O=C1NC(=O)C(Cc2ccc(-c3cc(=O)c4ccccc4o3)cc2)S1 (stereo not given)", "135.5%"),
    ("CN1C(=O)/C(=C\\c2cccc(-c3cc(=O)c4ccccc4o3)c2)N(C)C1=S", "102.8%"),
    ("CCN1C(=O)/C(=C/c2ccc(-c3cc(=O)c4ccccc4o3)cc2)N(CC)C1=S", "96.27%"),
    ("O=C1NC(=O)/C(=C\\c2cccc(-c3cc(=O)c4ccccc4o3)c2)N1", "103.3%"),
    ("O=C1NC(=O)C(Cc2cccc(-c3cc(=O)c4ccccc4o3)c2)S1 (stereo not given)", "69.89%"),
    ("O=C1NC(=O)/C(=C/c2ccc(-c3cc(=O)c4ccccc4o3)cc2)N1", "105.1%"),
    ("CCN1C(=O)S/C(=C\\c2ccc(-c3cc(=O)c4ccccc4o3)cc2)C1=O", "117.9%"),
]

---

Quick list: Activity per entry.
- System: INS1
- protocol-text: Hypoglycemic activity in Rattus norvegicus (rat) INS1 cells assessed as glucose-mediated insulin release after 90 min (reference value: 62.96 +/- 5.68 to 69.70 +/- 4.98 %)
- Format: functional

# cpd-smiles, Activity / %
data = [
    ("CN1C(=O)/C(=C\\c2cccc(-c3cc(=O)c4ccccc4o3)c2)N(C)C1=O", 218.3),
    ("CN1C(=O)/C(=C/c2ccc(-c3cc(=O)c4ccccc4o3)cc2)N(C)C1=O", 103.4),
    ("O=C1NC(=O)/C(=C/c2ccc(-c3cc(=O)c4ccccc4o3)cc2)S1", 55.7),
    ("CCN1C(=O)S/C(=C/c2cccc(-c3cc(=O)c4ccccc4o3)c2)C1=O", 299),
    ("O=C1NC(=O)/C(=C\\c2cccc(-c3cc(=O)c4ccccc4o3)c2)S1", 79.76),
    ("CN1C(=O)S/C(=C\\c2ccc(-c3cc(=O)c4ccccc4o3)cc2)C1=O", 145.1),
    ("CCN1C(=O)/C(=C/c2ccc(-c3cc(=O)c4ccccc4o3)cc2)N(CC)C1=O", 127.1),
    ("CCN1C(=O)/C(=C\\c2cccc(-c3cc(=O)c4ccccc4o3)c2)NC1=S", 129.6),
    ("CN1C(=O)/C(=C/c2ccc(-c3cc(=O)c4ccccc4o3)cc2)N(C)C1=S", 114.3),
    ("O=C1NC(=S)N/C1=C\\c1ccc(-c2cc(=O)c3ccccc3o2)cc1", 130.3),
]
